Test: chitosan synthesis blockers in C. neoformans – flow cytometry, Cibacron Brilliant Red staining (AID 1347148);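 note: compound exposure lasted three days at 37 degrees C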
Conditions: Cryptococcus neoformans chitosan, stronger effect = lower value; at 10 µM unless noted
Calls of active or inactive are those of the source. The rule behind the calls is not given here.
Property: fold fluorescence

Worked examples follow.
CCCCCC#CCC#CCC#CCC#CCCCC(=O)O ... 5.73 (inactive)
CCCNC(=O)[C@H]1O[C@@H]1C(=O)N[C@H](C(=O)N1CCC[C@H]1C(=O)OC)C(C)CC (stereo not given in full) ... 3.89 [at 125.8 µM] (inactive)
CC(C)(C)c1cc(/C=C(\C#N)C(N)=S)cc(C(C)(C)C)c1O ... 11.2 [at 158 µM] (inactive)
CCCCCCCC/C=C\C/C=C\C/C=C\CCCC(=O)NCCO ... 4.64 (inactive)

Take each entry in turn and give its fold fluorescence.
1. COc1ccc2c(c1)CC[C@@H]1[C@@H]2CC[C@]2(C)[C@@H](NCCCCCCN3C(=O)C=CC3=O)CC[C@@H]12
2. CC/C=C\C/C=C\C/C=C\CCCCCCCC(=O)O
3. COc1cc2ncnc(Nc3cccc(Cl)c3)c2cc1OC
4. CC[N+](C)(CC)CCC[n+]1c(-c2ccccc2)c2cc(N)ccc2c2ccc(N)cc21
5. CCCCCCCC/C=C\CCCCCCCC(=O)OC[C@H](CO)OC(C)=O
6. CNC(=O)[C@H](Cc1c[nH]c2ccccc12)NC(=O)[C@@H](CC(=O)NO)CC(C)C

1: 12.8 [at 107.6 µM] (inactive); 2: 4.4 (inactive); 3: 5.72 [at 142 µM] (inactive); 4: 8.39 [at 120.6 µM] (inactive); 5: 5.82 (inactive); 6: 4.97 [at 128.7 µM] (inactive)

---

Experiment: viability loss in pontine glioma line – cell-based, SU-DIPG-XIII, MIPE4.0, CellTiter-Glo, qHTS, dose response (AID 1347061);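 note: cells exposed to compound for 48 hours before readout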
Conditions: CellTiter-Glo ATP luminescence
Inconclusive results are not listed. Calls of active or inactive are those of the source. Cut-off not given; nearly all actives show AC50 up to about 37 µM.
Hi there, use one of these labels in your reply, thanks! label 1 = active, label 0 = inactive

CC(C)(C)COc1ccc(-n2cc(C(=O)O)cn2)cc1C#N ... label 0
CCCCn1c(=O)n(Cc2ccccc2F)c(=O)c2[nH]c(Cc3ccc(NC(C)=O)cc3)nc21 ... label 0
Cc1nc(C(=O)NCC(=O)O)c(O)c2ccc(Oc3ccccc3)cc12 ... label 0

Field: outcome | Entry: `Clc1cccc(-c2nnnn2Cc2cccnc2)c1Cl` label 0

Now consider Nc1nc(=O)n([C@H]2CSC(CO)O2)cc1F (some centres undefined) and answer again. label 0

Now consider `Cc1cccc(Nc2nc(-c3ccncc3)cs2)c1` and answer again. label 0

Now consider CS(=O)(=O)N(Cc1ccco1)CC(O)Cn1c2ccccc2c2ccccc21 (centres undefined) and answer again. label 0

Now consider `Cc1cc(Nc2ncc3c(n2)N(C)C(=O)N(c2cc(NC(=O)c4cccc(C(F)(F)F)c4)ccc2C)C3)n(C)n1` and answer again. label 1

Now consider `CCCCCCCCCCCCc1ccc(S(=O)(=O)Nc2nncs2)cc1` and answer again. label 0

---

Assay: viability loss with induced miR-34 in A549 – imaging, A549 dox-inducible miR-34, nuclei and caspase counts, primary screen (AID 1347080)
Conditions: A549 miR-34 inducible, Hoechst nuclei count, 48 h; measured here: total cells without miR-34 induction
Property: cell count
Answers are plain numbers.

Worked examples follow.
CC(C)CCC[C@@H](C)[C@H]1CC[C@H]2[C@@H]3CC(=O)[C@@]4(O)C[C@@H](O)CC[C@]4(C)[C@H]3CC[C@]12C ... 6000
C=C1C[C@H](O)[C@H](C/C=C\CCCC(=O)O)[C@H]1/C=C/[C@@H](O)CCCCC ... 6010
CCCCC[C@H](O)/C=C/[C@@H]1[C@H](CCCCCCC(=O)O)[C@H](O)C[C@H]1O ... 6260
CCCCC[C@H](O)/C=C/[C@@H]1[C@@H](C/C=C\CCCCCC(=O)O)[C@@H](O)C[C@H]1O ... 6000
CCCCC(=O)NCCc1c(Cc2ccccc2)[nH]c2ccccc12 ... 6770
O=c1ncn2nc(Sc3ccc(F)cc3F)ccc2c1-c1c(Cl)cccc1Cl ... 7250
CC(C)N1Cc2cc(S(C)(=O)=O)ccc2N(CCN2CC=C(c3c[nH]c4cc(F)ccc34)CC2)S1(=O)=O ... 7530
O=C(O)CCC/C=C\C[C@@H]1[C@@H](/C=C/[C@@H](O)C2Cc3ccccc3C2)[C@@H](F)C[C@@H]1O ... 5320

Moving on to another compound below.
cell count lookup needed for `COC(=O)N1CCN(Cc2cccc(NC(=O)Nc3ccc(C)nc3)c2F)CC1` , thanks. 9680

---

Assay: JHH-DIPG-1 glioma cell viability, MIPE5.0 library, CellTiter-Glo luminescence, qHTS (AID 1347067);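 note: cells exposed to compound for 48 hours before readout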
Conditions: JHH-DIPG-1 glioma viability, CellTiter-Glo ATP luminescence
Records with an inconclusive call do not appear. Activity calls are given as the source filed them. Cut-off not given; nearly all actives show AC50 up to about 26 µM.
Hi there, use one of these labels in your reply, thanks! 1 (yes) (active), 0 (no) (inactive)

CC(=O)Oc1cc2c(s1)CCN(C(C(=O)C1CC1)c1ccccc1F)C2 (stereo not given) ... 0 (no)
CC[C@H](CC#N)OC(=O)N[C@@H](C)c1cccc(NC(=O)Nc2ccc(-c3cnco3)c(OC)c2)c1 ... 1 (yes)
CC(C)C(N)C(=O)OCC(CO)OCn1cnc2c(=O)[nH]c(N)nc21 (stereo not given) ... 0 (no)

Field: outcome | Entry: `CCCNS(=O)(=O)Nc1ncnc(OCCOc2ncc(Br)cn2)c1-c1ccc(Br)cc1` 0 (no)

Now consider `Cc1nnc(C[C@@H]2C=C(c3ccc(Cl)cc3)c3ccccc3-n3c(C)nnc32)o1` and answer again. 1 (yes)

---

Experiment: viability loss in pontine glioma line – cell-based, SU-DIPG-XIII, MIPE5.0, CellTiter-Glo, qHTS, dose response (AID 1347064);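 for AC50: cells exposed to compound for 48 hours before the viability read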
Settings: CellTiter-Glo ATP luminescence
Results filed as inconclusive are left out. The source made the active and inactive calls. No cut-off is given here; in the data, nearly all actives have AC50 up to about 23 µM.
Hi there, use one of these labels in your reply, thanks! active, inactive

Past entries and their recorded results:
N#Cc1ccc(Oc2ccc3c(c2)COB3O)cc1 ... inactive
CCCNC(=O)Nc1ccc(Oc2ncnc3cc(OC)c(OC)cc23)cc1Cl ... active

Field: outcome | Entry: `COc1cc(OC)c(/C=C/S(=O)(=O)Cc2ccc(OC)c(NCC(=O)O)c2)c(OC)c1` active

Now consider COc1cc2c(cc1OC(C)C)[C@H](c1ccc(Cl)cc1)N(c1ccc(N(C)CC3CCC(N4CCN(C)C(=O)C4)CC3)cc1)C(=O)C2 (some centres undefined) and answer again. active

Now consider `O=S(=O)(Nc1ccc(-c2cccnc2)c2cccnc12)c1cccc(C(F)(F)F)c1` and answer again. active

Now consider `CCCCN(CCCC)C(=O)CN1C[C@H](c2ccc3c(c2)OCO3)[C@@H](C(=O)O)[C@@H]1c1ccc(OC)cc1` and answer again. inactive

Now consider `COc1cc(N2CCC(N3CCN(C)CC3)CC2)ccc1Nc1ncnc(Nc2ccccc2S(=O)(=O)C(C)C)n1` and answer again. active

Now consider `Cc1c(CN2CCC(Nc3ncnc4sc(CC(F)(F)F)cc34)CC2)ccc2c1cc(C#N)n2Cc1cn[nH]c1` and answer again. active

Now consider `Cc1cccc(-c2[nH]ncc2-c2ccc(F)c(-c3cnn(CCO)c3)c2)n1` and answer again. inactive

---

Assay: growth inhibition of DIPG cells – cell-based, MIPE4.0 library, CellTiter-Glo luminescence, qHTS (AID 1347066);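 note: cells exposed to compound for 48 hours before readout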
Conditions: SU-DIPG-VI viability, CellTiter-Glo ATP luminescence
Inconclusive results are not listed. Activity calls are given as the source filed them. No cut-off is given here; in the data, nearly all actives have AC50 up to about 30 µM.
Hi there, use one of these labels in your reply, thanks! Yes (active), No (inactive)

NS(=O)(=O)OC[C@@H]1C[C@@H](n2ccc3c(N[C@H]4CCc5ccccc54)ncnc32)C[C@@H]1O ... No
CCn1cc(-c2ccnc3[nH]c(-c4cccc(CN(C)C)c4)cc23)c(-c2ccc(NC(=O)N(C)C)cc2)n1 ... Yes
N#Cc1ccc(Oc2ccc3c(c2)COB3O)cc1 ... No
NC(=O)C1CCCc2c1[nH]c1ccc(Cl)cc21 (stereo not given) ... No

Turning now to a further record.
Field: outcome | Entry: N[C@H]1CN(c2c(F)cc3c(=O)c(C(=O)O)cn(C4C[C@H]4F)c3c2Cl)CC12CC2 (stereo not given in full) No

---

Test: drug combination toxicity in non-malignant astrocytes – cell-based, BGB or cisplatin IC20 combos, cytotoxicity control for chromothriptic childhood tumor combination screen (AID 1671460);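 note: cells exposed to compounds for 96 hours before viability readout; 0% = vehicle and 100% = killing control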
Conditions: Human astrocytes, viability inhibition, drug combinations; measured here: combo with cisplatin IC20; at 0.5 µM; stronger effect = higher value
Property: inhibition (%)
Give bare numbers, in %.

Take each entry in turn and give its inhibition.
1. Nc1ncnc2c1c(-c1cnc3[nH]ccc3c1)nn2C1CCCC1
2. N=C1CCCN1Cc1[nH]c(=O)[nH]c(=O)c1Cl
3. CS(=O)(=O)c1ccc(-c2nnc(/C=C/c3nnc(-c4ccc(C#N)cc4)o3)n2-c2ccccc2Cl)nc1
4. NCCOc1cc(C(=O)Nc2cc(OCCN)c3ccccc3n2)nc(C(=O)Nc2cc(OCCN)c3ccccc3n2)c1
5. Cc1cn([C@@H]2O[C@H](CO)[C@@H](O)[C@@H]2F)c(=O)[nH]c1=O

46
-10.8
52.2
9.36
15.4

Take each entry in turn and give its inhibition.
1. COc1ccc(C(=O)C2CCN(CC(=O)N(Cc3nc4c(c(=O)[nH]3)COCC4)CC3CC3)CC2)cc1
2. Nc1ccc(-c2ccc3ncc4ccc(=O)n(-c5cccc(C(F)(F)F)c5)c4c3c2)cn1
3. COc1cc(C=O)c([N+](=O)[O-])cc1OC
4. CN(C)CCN1C(=O)c2cccc3cc(N)cc(c23)C1=O

1. 49.7
2. 77.3
3. -9.79
4. -2.98

inhibition lookup needed for `O=C(/C=C/c1ccc(CN(CCO)CCc2c[nH]c3ccccc23)cc1)NO` , thanks. 97.1

Data provenance: PubChem BioAssay
